For each entry below, report its normalized area under the dose-response curve value.
# System: JVM2 (cancer type: Mantle)
# TEST NAME: normalized area under the dose-response curve (viability relative to DMSO control) (fraction); higher = less sensitive (more viable cells)
# MEASUREMENT SETUP: exposure time not given
Answer with the value's number alone.

Just so you know, measured normalized area under the dose-response curve for C[C@@H](Oc1cc(-c2cnn(C3CCNCC3)c2)cnc1N)c1c(Cl)ccc(F)c1Cl [Crizotinib] came out at 0.654

Just so you know, measured normalized area under the dose-response curve for CC(=O)c1c(C)c2cnc(Nc3ccc(N4CCNCC4)cn3)nc2n(C2CCCC2)c1=O [Palbociclib] came out at 0.65

Just so you know, measured normalized area under the dose-response curve for CC[C@H](Nc1ncnc2[nH]cnc12)c1nc2cccc(F)c2c(=O)n1-c1ccccc1 [Idelalisib] came out at 0.606

Just so you know, measured normalized area under the dose-response curve for COC(=O)c1ccc2c(c1)NC(=O)/C2=C(\Nc1ccc(N(C)C(=O)CN2CCN(C)CC2)cc1)c1ccccc1 [Nintedanib] came out at 0.815
